System: Gastric mucosa
Assay: Inhibition of lipid peroxidation assessed as malondialdehyde level per mg of protein in gastric mucosa isolated from albino rat treated 60 mg/kg, po by UV spectrophotometry
Format: functional
quantity-kind: Activity (nmol/mg protein)
Reply numerically in nmol/mg protein, unit not repeated.

Example entries and their recorded answers appear below.
Request: Sample O=C1OC(c2ccc(Cl)cc2)=C/C1=C\c1ccccc1[N+](=O)[O-] — what was its Activity?
Result: 0.429

Request: // same read-out, input: O=C1OC(c2ccc(Cl)cc2)=C/C1=C\c1ccccc1Cl
Result: 0.494

***
Request: Sample O=C1OC(c2ccc(Cl)cc2)=C/C1=C\c1ccc([N+](=O)[O-])cc1 — what was its Activity?
Result: 0.549

Request: // same read-out, input: O=C1OC(c2ccc(Cl)cc2)=C/C1=C\c1ccccc1
Result: 0.522

Request: // same read-out, input: O=C1/C(=C/c2ccc(Cl)cc2)C=C(c2ccc(Cl)cc2)N1Cc1ccccc1
Result: 0.31

Request: // same read-out, input: O=C1OC(c2ccc(Cl)cc2)=C/C1=C\c1ccc(Cl)cc1
Result: 0.403

Request: // same read-out, input: O=C1OC(c2ccc(Cl)cc2)=C/C1=C\c1ccc(F)cc1
Result: 0.329

Request: // same read-out, input: COc1cc(/C=C2\C=C(c3ccc(Cl)cc3)OC2=O)ccc1OC(C)=O
Result: 0.597

Request: // same read-out, input: O=C1/C(=C/c2ccc([N+](=O)[O-])cc2)C=C(c2ccc(Cl)cc2)N1Cc1ccccc1
Result: 0.403

Request: // same read-out, input: O=C1/C(=C/c2ccccc2)C=C(c2ccc(Cl)cc2)N1Cc1ccccc1
Result: 0.605

###

System: Rattus norvegicus
Test: Gastrointestinal toxicity in albino rat assessed ulcer index at 60 mg/kg, po after 17 hrs
Assay type: organism-based
Set-up: dose 60 mg/kg, route oral
Conditions: in vivo
quantity-kind: UI

Example entries and their recorded answers appear below.
Request: Provide value of UI for this record tested with Rattus norvegicus: COc1cc(/C=C2\C=C(c3ccc(Cl)cc3)OC2=O)ccc1OC(C)=O
Result: 0.3

Request: // same read-out, input: O=C1OC(c2ccc(Cl)cc2)=C/C1=C\c1ccc(Cl)cc1Cl
Result: 0.1

Request: // same read-out, input: COc1cc(/C=C2\C=C(c3ccc(Cl)cc3)N(Cc3ccccc3)C2=O)ccc1O
Result: 0.5

Request: // same read-out, input: O=C1OC(c2ccc(Cl)cc2)=C/C1=C\c1ccccc1
Result: 0.9

***
Request: Provide value of UI for this record tested with Rattus norvegicus: O=C1OC(c2ccc(Cl)cc2)=C/C1=C\c1ccccc1[N+](=O)[O-]
Result: 0.6

Request: // same read-out, input: O=C1OC(c2ccc(Cl)cc2)=C/C1=C\c1ccccc1Cl
Result: 0.2

Request: // same read-out, input: O=C1OC(c2ccc(Cl)cc2)=C/C1=C\c1ccc(Cl)cc1
Result: 0.2

Request: // same read-out, input: O=C1/C(=C/c2ccc([N+](=O)[O-])cc2)C=C(c2ccc(Cl)cc2)N1Cc1ccccc1
Result: 0.4

Request: // same read-out, input: COc1ccc(/C=C2\C=C(c3ccc(Cl)cc3)OC2=O)cc1
Result: 0.5

Request: // same read-out, input: O=C1/C(=C/c2ccc(F)cc2)C=C(c2ccc(Cl)cc2)N1Cc1ccccc1
Result: 0.2
